Biological target: T1, human MET ECD (human, UniProt P08581 25-932)
T1 construct: range 1-932; recombinant ECD made by the applicants; the stated range begins at residue 1, so it includes the signal peptide of the entry; also called hMET; hMET ECD
T1 sequence (P08581 25-932 limits assumed, form in doubt): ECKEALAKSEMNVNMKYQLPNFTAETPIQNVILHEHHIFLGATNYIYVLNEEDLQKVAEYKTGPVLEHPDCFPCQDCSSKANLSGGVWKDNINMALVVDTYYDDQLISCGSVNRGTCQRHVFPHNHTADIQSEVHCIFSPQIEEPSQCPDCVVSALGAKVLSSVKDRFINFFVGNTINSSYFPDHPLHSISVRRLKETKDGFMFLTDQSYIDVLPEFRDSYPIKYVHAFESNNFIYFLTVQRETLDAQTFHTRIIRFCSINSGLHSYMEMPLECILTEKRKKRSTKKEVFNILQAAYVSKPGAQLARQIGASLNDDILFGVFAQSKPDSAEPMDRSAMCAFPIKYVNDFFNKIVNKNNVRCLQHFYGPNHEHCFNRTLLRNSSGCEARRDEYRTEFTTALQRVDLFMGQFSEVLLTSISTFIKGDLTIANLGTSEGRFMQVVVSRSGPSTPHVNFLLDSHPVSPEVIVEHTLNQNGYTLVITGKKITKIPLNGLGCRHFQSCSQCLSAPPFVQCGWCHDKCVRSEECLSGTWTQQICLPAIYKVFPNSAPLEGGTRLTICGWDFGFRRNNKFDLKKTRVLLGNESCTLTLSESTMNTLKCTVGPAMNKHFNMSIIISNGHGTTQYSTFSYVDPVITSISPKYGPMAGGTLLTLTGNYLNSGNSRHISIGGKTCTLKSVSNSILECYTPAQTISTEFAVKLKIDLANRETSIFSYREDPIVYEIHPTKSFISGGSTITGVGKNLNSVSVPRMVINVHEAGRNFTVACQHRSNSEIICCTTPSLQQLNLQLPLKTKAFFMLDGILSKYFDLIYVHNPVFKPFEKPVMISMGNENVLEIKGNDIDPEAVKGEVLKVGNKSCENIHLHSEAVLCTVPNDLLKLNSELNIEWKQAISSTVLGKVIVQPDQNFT
Experiment: ELISA, MET ECD in solid phase, mAb 0-20 nM
readout.label: EMAX (OD450) (AU)
Answer in AU, number only, no unit symbol.

71D4 chimeric llama-human IgG1 mAb (antibody, V domains shown, llama VH on human IgG1 CH1-CH2-CH3, llama VL on human lambda CL) VH: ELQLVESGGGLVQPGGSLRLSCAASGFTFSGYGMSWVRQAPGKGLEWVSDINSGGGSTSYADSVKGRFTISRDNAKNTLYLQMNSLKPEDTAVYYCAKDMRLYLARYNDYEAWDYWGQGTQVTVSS VL: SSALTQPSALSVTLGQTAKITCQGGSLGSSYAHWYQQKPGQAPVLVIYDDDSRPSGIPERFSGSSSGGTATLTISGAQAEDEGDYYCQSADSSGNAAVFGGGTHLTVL = 1.43

EMAX (OD450) lookup needed for 71A3 chimeric llama-human IgG1 mAb (antibody, V domains shown, llama VH on human IgG1 CH1-CH2-CH3, llama VL on human lambda CL) VH: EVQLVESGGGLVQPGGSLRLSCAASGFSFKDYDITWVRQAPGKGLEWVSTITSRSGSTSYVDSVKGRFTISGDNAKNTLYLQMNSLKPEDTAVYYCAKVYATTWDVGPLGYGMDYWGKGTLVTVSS VL: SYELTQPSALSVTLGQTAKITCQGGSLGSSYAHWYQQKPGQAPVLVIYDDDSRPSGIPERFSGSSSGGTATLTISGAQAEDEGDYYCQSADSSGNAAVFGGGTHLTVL , thanks. 2.4

# query: EMAX (OD450) of entry 76G7 chimeric llama-human IgG1 mAb (antibody, V domains shown, llama VH on human IgG1 CH1-CH2-CH3, llama VL on human lambda CL) VH: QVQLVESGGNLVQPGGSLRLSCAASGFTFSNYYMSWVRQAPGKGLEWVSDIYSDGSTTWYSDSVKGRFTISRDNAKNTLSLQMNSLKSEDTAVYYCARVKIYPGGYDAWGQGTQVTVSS VL: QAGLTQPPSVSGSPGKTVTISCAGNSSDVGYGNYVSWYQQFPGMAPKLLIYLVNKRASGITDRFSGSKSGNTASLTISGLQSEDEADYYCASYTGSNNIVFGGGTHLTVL 2.62

Source of measurements: patent US20210087281A1
